From: patent US9440957B2

- target.system: EGFR(L858R/T790M) (Homo sapiens, UniProt P00533, L858R/T790M)
- Construct: purchased from Carna (GST-a.a. 669-1210)
- Sequence (P00533 669-1210 T790M/L858R): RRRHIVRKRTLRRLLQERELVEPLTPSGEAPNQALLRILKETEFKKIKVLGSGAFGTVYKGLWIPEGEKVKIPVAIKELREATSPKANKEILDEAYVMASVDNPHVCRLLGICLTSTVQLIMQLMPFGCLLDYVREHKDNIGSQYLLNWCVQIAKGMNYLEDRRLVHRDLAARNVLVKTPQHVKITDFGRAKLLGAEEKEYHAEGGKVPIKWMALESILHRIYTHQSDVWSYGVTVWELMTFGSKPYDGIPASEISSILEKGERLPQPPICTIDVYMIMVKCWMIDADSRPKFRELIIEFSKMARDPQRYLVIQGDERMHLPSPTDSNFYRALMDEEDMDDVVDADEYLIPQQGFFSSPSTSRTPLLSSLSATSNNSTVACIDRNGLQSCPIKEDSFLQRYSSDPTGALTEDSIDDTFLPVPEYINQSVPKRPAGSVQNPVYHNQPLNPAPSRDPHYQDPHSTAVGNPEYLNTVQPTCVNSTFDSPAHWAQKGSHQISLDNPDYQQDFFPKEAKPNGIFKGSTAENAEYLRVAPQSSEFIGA
- experimental.protocol: EGFR biochemical assay (HTRF), IC50 determinations
- condition.info: EGFR (L858R/T790M) with 90 min pre-incubation; read-out: IC50 (μM) Column B
property.label: IC50 (µM)

See these solved cases before continuing.
Cc1cccc2nc(NC(=O)c3ccccn3)n(C3CCCCN(C(=O)/C=C/CN(C)C)C3)c12 (centres unmarked) [Example 17-34] : 0.038
C=CC(=O)N1CCC[C@@H](n2c(NC(=O)c3cccc(C(F)(F)F)c3)nc3cc(CN(C)C(C)=O)ccc32)C1 [Example 17-119] : 0.008
C=CC(=O)N1CCC[C@@H](n2c(NC(=O)c3cccc(C(F)(F)F)c3)nc3cc(C(=O)O)ccc32)C1 [Example 18] : 0.041
Cc1cc(C(=O)Nc2nc3cccc(Cl)c3n2[C@@H]2CCCCN(C(=O)/C=C/CN3CCC(F)(F)C3)C2)ccn1 [Example 3-3] : 0.011
C=CC(=O)N1CCCC(n2c(NC(=O)c3cccc(C(F)(F)F)c3)nc3ccncc32)C1 (centres unmarked) [Example 17-9] : 0.218

(1) C=C(CN1CCOCC1)C(=O)N1CCCC[C@@H](n2c(NC(=O)c3ccnnc3)nc3cccc(C)c32)C1 [Example 17-93]
(2) Cc1cc(C(=O)Nc2nc3cccc(Cl)c3n2[C@@H]2CCCCN(C(=O)/C=C/CN3CC(F)(F)C3)C2)ccn1 [Example 3-15]
(3) COc1cc2nc(NC(=O)c3cc(C)nc(C)c3)n([C@@H]3CCCCN(C(=O)/C=C/CN(C)C)C3)c2cc1Cl [Example 17-179]
# rank_down: sort by IC50, max first Sort and list the labels as requested.
1, 3, 2

---

- target.system: H1975 (EGFR L858/T790M) (Homo sapiens, UniProt P00533, L858R/T790M)
- Sequence (P00533 25-1210 T790M/L858R): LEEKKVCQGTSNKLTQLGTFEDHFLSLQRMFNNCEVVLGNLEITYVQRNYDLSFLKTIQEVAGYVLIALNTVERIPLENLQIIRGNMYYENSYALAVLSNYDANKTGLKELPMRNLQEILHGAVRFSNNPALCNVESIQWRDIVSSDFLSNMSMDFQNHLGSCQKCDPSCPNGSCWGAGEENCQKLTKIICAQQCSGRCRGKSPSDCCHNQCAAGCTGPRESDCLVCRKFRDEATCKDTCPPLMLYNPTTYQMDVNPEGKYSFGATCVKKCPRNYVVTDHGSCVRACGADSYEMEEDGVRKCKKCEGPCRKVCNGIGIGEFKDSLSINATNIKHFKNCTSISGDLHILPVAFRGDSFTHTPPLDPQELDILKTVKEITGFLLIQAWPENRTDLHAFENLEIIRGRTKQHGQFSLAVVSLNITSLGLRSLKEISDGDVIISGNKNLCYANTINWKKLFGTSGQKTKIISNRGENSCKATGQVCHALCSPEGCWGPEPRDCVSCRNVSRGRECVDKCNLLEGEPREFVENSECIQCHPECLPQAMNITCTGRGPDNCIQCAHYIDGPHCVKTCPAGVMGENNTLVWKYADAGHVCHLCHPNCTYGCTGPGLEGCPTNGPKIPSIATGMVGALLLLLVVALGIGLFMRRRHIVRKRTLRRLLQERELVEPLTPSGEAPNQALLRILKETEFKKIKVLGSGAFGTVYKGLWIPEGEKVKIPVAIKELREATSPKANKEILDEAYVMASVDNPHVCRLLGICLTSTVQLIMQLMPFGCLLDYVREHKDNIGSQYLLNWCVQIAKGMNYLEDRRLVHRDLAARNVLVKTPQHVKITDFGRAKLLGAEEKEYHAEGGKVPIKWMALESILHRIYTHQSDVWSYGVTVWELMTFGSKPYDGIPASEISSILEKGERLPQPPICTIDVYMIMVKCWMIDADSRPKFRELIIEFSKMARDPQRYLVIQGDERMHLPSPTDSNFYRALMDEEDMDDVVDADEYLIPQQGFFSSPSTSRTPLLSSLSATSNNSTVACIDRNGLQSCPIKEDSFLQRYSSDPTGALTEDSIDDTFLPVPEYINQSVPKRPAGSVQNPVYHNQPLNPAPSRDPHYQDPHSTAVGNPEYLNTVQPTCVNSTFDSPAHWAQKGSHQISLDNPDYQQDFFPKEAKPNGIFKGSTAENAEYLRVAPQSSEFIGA
- experimental.protocol: EGFR target modulation in H1975 cell line (phospho-EGFR Y1173 ELISA)
- Protocol: EGFR Target Modulation in H1975, H3255 and HCC827 Cell Lines Tissue Culture. Cells were maintained in 10% FBS/RPMI supplemented with 100 μg/ml Penicillin/Streptomycin (Hyclone #SH30236.01). […] The cells were allowed to incubate overnight in a 37° C., 5% CO2 humidified tissue culture incubator. […] Signal was read on EnVision plate reader using built-in UltraLUM setting. […] With these parameters, the IC50's for each compound in each cell line was calculated using non-linear curve fitting analysis.
pIC50: −log10 of the molar value.
property.label: pIC50

See these solved cases before continuing.
Cc1cncc(C(=O)Nc2nc3cccc(C)c3n2[C@@H]2CCCCN(C(=O)/C=C/CN(C)C)C2)c1 : 8.70
Cc1noc(-c2cccc3nc(NC(=O)c4ccccc4)n(C4COCCN(C(=O)/C=C/CN(C)C)C4)c23)n1 (centres unmarked) : 6.98
C=CC(=O)N1CCCC[C@@H](n2c(NC(=O)c3cccc(C(F)(F)F)c3)nc3cccc(C)c32)C1 (single isomer, unassigned) : 9.00
COc1cc2nc(NC(=O)c3ccnc(C)c3)n([C@@H]3CCCCN(C(=O)/C=C/CN(C)C)C3)c2cc1Cl : 6.93
C=CC(=O)N1CCCC[C@@H](n2c(NC(=O)c3ccnnc3)nc3cccc(OC)c32)C1 : 7.43
Cc1cccc2nc(NC(=O)c3cnc(Cl)c(Cl)c3)n([C@@H]3CCCCN(C(=O)/C=C/CN(C)C)C3)c12 : 6.87

(1) C=CC(=O)N1CCCC[C@@H](n2c(NC(=O)c3cnnc(C)c3)nc3cccc(C)c32)C1
(2) Cc1cc(C(=O)Nc2nc3cccc(Cl)c3n2[C@@H]2CCCCN(C(=O)/C=C/CN3CC[C@@H](O)C3)C2)ccn1
(3) C=CC(=O)N1CCC[C@@H](n2c(NC(=O)c3ccccc3)nc3cccc(C)c32)C1
# rank_down: sort by pIC50, max first Sort and list the labels as requested.
1, 3, 2
(1: 8.70, 3: 7.85, 2: 7.60)

(a) C/C=C/C(=O)N1CCCC[C@@H](n2c(NC(=O)c3cc(C)nc(C)c3)nc3ccc(OCCN4CCCC4)c(Cl)c32)C1
(b) C=CC(=O)N1CCC[C@@H](n2c(NC(=O)c3cccc(C(F)(F)F)c3)nc3cc(COC)ccc32)C1
Lowest pIC50? choose a or b Respond with the label that goes with your answer.
a
